- TARGET UNDER TEST: α4β7 integrin (Homo sapiens (Human), UniProt P13612+P26010)
- Sequence (P13612 34-1032): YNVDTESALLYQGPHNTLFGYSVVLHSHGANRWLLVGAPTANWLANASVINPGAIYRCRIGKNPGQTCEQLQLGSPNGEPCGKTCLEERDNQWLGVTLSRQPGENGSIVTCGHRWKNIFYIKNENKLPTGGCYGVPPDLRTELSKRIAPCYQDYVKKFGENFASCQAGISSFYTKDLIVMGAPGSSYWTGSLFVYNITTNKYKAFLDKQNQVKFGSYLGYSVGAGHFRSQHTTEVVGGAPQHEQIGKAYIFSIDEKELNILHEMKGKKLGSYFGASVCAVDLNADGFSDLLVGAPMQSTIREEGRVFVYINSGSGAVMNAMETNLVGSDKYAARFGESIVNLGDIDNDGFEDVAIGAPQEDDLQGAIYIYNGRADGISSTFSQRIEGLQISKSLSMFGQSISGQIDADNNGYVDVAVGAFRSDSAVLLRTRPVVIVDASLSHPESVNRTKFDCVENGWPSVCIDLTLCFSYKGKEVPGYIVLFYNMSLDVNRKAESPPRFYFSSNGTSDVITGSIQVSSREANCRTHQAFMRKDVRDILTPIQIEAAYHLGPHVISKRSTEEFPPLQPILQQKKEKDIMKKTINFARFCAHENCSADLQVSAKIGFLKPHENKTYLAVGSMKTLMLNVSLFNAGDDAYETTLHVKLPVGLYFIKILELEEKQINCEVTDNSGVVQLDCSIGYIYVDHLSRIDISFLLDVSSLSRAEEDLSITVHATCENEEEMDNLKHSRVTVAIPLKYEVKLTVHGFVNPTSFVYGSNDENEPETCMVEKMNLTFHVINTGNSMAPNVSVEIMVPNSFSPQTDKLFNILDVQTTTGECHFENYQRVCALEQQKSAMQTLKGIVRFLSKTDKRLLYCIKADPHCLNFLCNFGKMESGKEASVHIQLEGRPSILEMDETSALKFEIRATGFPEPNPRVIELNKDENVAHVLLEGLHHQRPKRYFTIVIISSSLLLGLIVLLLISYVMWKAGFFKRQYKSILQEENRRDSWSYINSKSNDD
- Sequence (P26010 20-798): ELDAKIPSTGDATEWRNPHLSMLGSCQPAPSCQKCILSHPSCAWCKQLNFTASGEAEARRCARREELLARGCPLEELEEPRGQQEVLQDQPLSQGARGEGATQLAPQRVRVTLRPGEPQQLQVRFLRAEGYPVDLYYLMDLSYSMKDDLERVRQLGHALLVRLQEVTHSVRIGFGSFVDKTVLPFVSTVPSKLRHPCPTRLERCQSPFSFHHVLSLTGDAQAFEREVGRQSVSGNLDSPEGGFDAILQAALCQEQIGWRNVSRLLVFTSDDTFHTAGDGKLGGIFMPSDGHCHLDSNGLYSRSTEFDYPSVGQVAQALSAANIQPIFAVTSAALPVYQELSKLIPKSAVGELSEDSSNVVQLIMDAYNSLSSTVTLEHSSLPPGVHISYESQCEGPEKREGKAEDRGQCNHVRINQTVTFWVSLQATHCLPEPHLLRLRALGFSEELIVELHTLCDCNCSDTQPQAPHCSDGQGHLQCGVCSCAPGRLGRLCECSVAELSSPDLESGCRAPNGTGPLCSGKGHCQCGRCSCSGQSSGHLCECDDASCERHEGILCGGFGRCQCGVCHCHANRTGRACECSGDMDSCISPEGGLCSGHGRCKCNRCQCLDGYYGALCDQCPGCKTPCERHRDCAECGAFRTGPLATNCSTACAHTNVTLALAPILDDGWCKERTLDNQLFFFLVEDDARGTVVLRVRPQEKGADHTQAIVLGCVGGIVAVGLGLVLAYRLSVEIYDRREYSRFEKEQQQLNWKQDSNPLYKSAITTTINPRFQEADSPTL
- TEST PROTOCOL: Integrin Adhesion Assay: Protocol 4 (MAdCAM-coated plate, RPMI-8866 cells with stable LOF mutation of the ITGB1 gene)
- Assay type: cell-based
- CONDITION DESCRIPTION: Protocol 4; RPMI-8866 cells with LOF mutation of ITGB1, MAdCAM; read-out: Mean IC50 α4β7 KO
MEASURED PARAMETER: IC50

SMILES STRING | MEASURED PARAMETER | REPORTED RESULT
O=C(O)[C@H](Cc1cccc2c(-c3ncc(CN4CCN(C5CC5)CC4)cc3C3CC3)cccc12)NC(=O)C1(C(F)(F)F)CCN(CC(F)(F)F)CC1 | IC50 | < 10 nM
COc1cccc(CN2CCC(C(C)(C)C)CC2)c1-c1cccc2c(C[C@H](NC(=O)c3c(C)cccc3F)C(=O)O)cccc12 | IC50 | < 10 nM
O=C(O)[C@H](Cc1cccc2c(-c3ncc(CN4CCCCC4)cc3C3CC3)cccc12)NC(=O)C1(C(F)(F)F)CCN(CC(F)(F)F)CC1 | IC50 | < 10 nM
COc1cc(CN2CCC(C(F)(F)F)CC2)cnc1-c1cccc2c(C[C@H](NC(=O)c3c(C)cccc3F)C(=O)O)cccc12 | IC50 | 10 to 100 nM
O=C(O)[C@H](Cc1cccc2c(-c3ncc(CN4CCOCC4)c4ccccc34)cccc12)NC(=O)C1(C(F)(F)F)CCN(CC(F)(F)F)CC1 | IC50 | < 10 nM
CC[C@H]1CCCCN1Cc1cnc(-c2cccc3c(C[C@H](NC(=O)C4(C(F)(F)F)CCN(CC(F)(F)F)CC4)C(=O)O)cccc23)c2ccccc12 | IC50 | < 10 nM

====

- TARGET UNDER TEST: α4β7 integrin (Homo sapiens (Human), UniProt P13612+P26010)
- TEST PROTOCOL: Integrin Adhesion Assay: Protocol 1 (MAdCAM-coated plate, RPMI-8866 cells, CellTiter GLO readout)
- Format: cell-based
pIC50: −log10 of the molar value.
Collected pIC50 values appear next to each entry.
MEASURED PARAMETER: pIC50

MOLECULE | MEASURED PARAMETER | REPORTED RESULT
CN(C)Cc1ccc2c(-c3cccc4c(C[C@H](NC(=O)[C@]5(C)CC[C@H](N6CCOC[C@@H]6C(F)(F)F)CC5)C(=O)O)cccc34)nccc2c1 [Compound 582] | pIC50 | 7.00 to 8.00
CN(C)Cc1ccc2c(-c3cccc4c(C[C@H](NC(=O)[C@]5(C)CC[C@@H](N6CCOC[C@@H]6C(F)(F)F)CC5)C(=O)O)cccc34)nccc2c1 [Compound 581] | pIC50 | 7.00 to 8.00
Cc1c(F)ccc(F)c1C(=O)N[C@@H](Cc1cccc2c(-c3c(C(F)(F)F)c4ccccc4n(C)c3=O)cccc12)C(=O)O [Compound 444] | pIC50 | 7.00 to 8.00
CN(C)Cc1ccc2c(-c3cccc4c(C[C@H](NC(=O)[C@]5(C)CC[C@H](N6CCC(F)(F)CC6)CC5)C(=O)O)cccc34)nccc2c1 [Compound 586] | pIC50 | < 6.00
Cn1c(=O)c(-c2cccc3c(C[C@H](NC(=O)c4cc5ccc(N6CC(F)C6)cn5n4)C(=O)O)cccc23)c(C(F)(F)F)c2ccccc21 [Compound 429] | pIC50 | < 6.00

====

- TARGET UNDER TEST: α4β7 integrin (Homo sapiens (Human), UniProt P13612+P26010)
- TEST PROTOCOL: Integrin Adhesion Assay: Protocol 1 (MAdCAM-coated plate, RPMI-8866 cells, CellTiter GLO readout)
- Type: cell-based
- CONDITION DESCRIPTION: integrin adhesion assay; determined by at least one of the assays described (protocol not specified)

MOLECULE | IC50
Cc1cc(N2CCOC[C@@H]2C(F)(F)F)cc(F)c1C(=O)N[C@@H](Cc1cccc2c(-c3c(C(F)(F)F)ccn(C)c3=O)nccc12)C(=O)O [Compound 215] | < 0.01 µM
Cn1ccc(=O)n(-c2cccc3c(C[C@H](NC(=O)C4(C)CCN(CC(F)F)CC4)C(=O)O)cccc23)c1=O [Compound 58] | 0.01 to 0.1 µM
Cn1ccc(C(F)(F)F)c(-c2nccc3c(C[C@H](NC(=O)c4c(F)cc(N5CCOCC56CC6)cc4F)C(=O)O)cccc23)c1=O [Compound 217] | < 0.01 µM
Cn1ccc(=O)n(-c2cccc3c(C[C@H](NC(=O)[C@H]4C[C@H]5CC[C@@H](C4)N5CC(F)(F)F)C(=O)O)cccc23)c1=O [Compound 154] | > 1 µM
Cc1nccc(O)c1C(=O)N[C@@H](Cc1cccc2c(-n3c(=O)ccn(C)c3=O)cccc12)C(=O)O [Compound 125] | > 1 µM
Cn1ccc(=O)n(-c2cccc3c(C[C@H](NC(=O)C(C)(C)c4ccc(Oc5ccccc5)cc4)C(=O)O)cccc23)c1=O [Compound 178] | > 1 µM
O=C(N[C@@H](Cc1cccc2c(-c3nccc4ccncc34)cccc12)C(=O)O)c1c(F)cc(N2CCOC[C@@H]2C(F)(F)F)cc1F [Compound 23] | < 0.01 µM

====

- TARGET UNDER TEST: α4β7 integrin (Homo sapiens (Human), UniProt P13612+P26010)
- TEST PROTOCOL: Integrin Adhesion Assay: Protocol 4 (MAdCAM-coated plate, RPMI-8866 cells with stable LOF mutation of the ITGB1 gene)
- Assay type: cell-based
- CONDITION DESCRIPTION: Protocol 4; RPMI-8866 cells with LOF mutation of ITGB1, MAdCAM; read-out: Mean IC50 α4β7 KO
MEASURED PARAMETER: IC50

SMILES STRING | REPORTED RESULT
O=C(O)[C@H](Cc1cccc2c(-c3ncc(CCN4CCCCC4)c4ccccc34)cccc12)NC(=O)C1(C(F)(F)F)CCN(CC(F)F)CC1 | < 10 nM
COc1cc(CN2CCC(F)(F)CC2)cc(C(F)(F)F)c1-c1cccc2c(C[C@H](NC(=O)C3(C(F)(F)F)CCN(CC(F)(F)F)CC3)C(=O)O)cccc12 | 10 to 100 nM
COc1ccc(CN2CCC(C(F)(F)F)CC2)c(OC)c1-c1cccc2c(C[C@H](NC(=O)C3(C(F)(F)F)CCN(CC(F)(F)F)CC3)C(=O)O)cccc12 | < 10 nM
O=C(O)[C@H](Cc1cccc2c(-c3ncc(CN4CCCCC4)cc3C(F)(F)F)cccc12)NC(=O)C1(C(F)(F)F)CCN(CC(F)F)CC1 | < 10 nM
COc1cc2c(c(OC)c1-c1cccc3c(C[C@H](NC(=O)C4(C(F)(F)F)CCN(CC(F)(F)F)CC4)C(=O)O)cccc13)CN(C1CCCCC1)CC2 | < 10 nM
O=C(O)[C@H](Cc1cccc2c(-c3ncc(CN4CCC[C@@H](F)C4)c4ccccc34)cccc12)NC(=O)C1(C(F)(F)F)CCN(CC(F)(F)F)CC1 | 10 to 100 nM
COc1ccc(CCN2CCC(F)(F)CC2)c(OC)c1-c1cccc2c(C[C@H](NC(=O)C3(C(F)(F)F)CCN(CC(F)(F)F)CC3)C(=O)O)cccc12 | < 10 nM
COc1ccc(CCN2CCCCC2)c(C(F)(F)F)c1-c1cccc2c(C[C@H](NC(=O)C3(C(F)(F)F)CCN(CC(F)(F)F)CC3)C(=O)O)cccc12 | < 10 nM
COc1c(-c2cccc3c(C[C@H](NC(=O)C4(C(F)(F)F)CCN(CC(F)F)CC4)C(=O)O)cccc23)cc(CN2CCCCC2)cc1C(F)(F)F | 10 to 100 nM
COc1cc(CN2CCCCC2)cnc1-c1cccc2c(C[C@H](NC(=O)c3c(C)cccc3F)C(=O)O)cccc12 | < 10 nM
COc1cc2c(cc1-c1cccc3c(C[C@H](NC(=O)c4c(C)cccc4F)C(=O)O)cccc13)CN(CC(F)F)CC2 | 10 to 100 nM
Cn1c(=O)c(-c2cccc3c(C[C@H](NC(=O)C4(C(F)(F)F)CCN(CC(F)F)CC4)C(=O)O)cccc23)c(C(F)(F)F)c2cc(CN3CCC(F)CC3)ccc21 | < 10 nM
O=C(O)[C@H](Cc1cccc2c(-c3ncc(CN4CCC[C@H](F)C4)c4ccccc34)cccc12)NC(=O)C1(C(F)(F)F)CCN(CC(F)F)CC1 | < 10 nM

====

- TARGET UNDER TEST: α4β1 integrin (Homo sapiens (Human), UniProt P05556+P13612)
- Sequence (P13612 34-1032): as the sequence (P13612 34-1032) above
- Sequence (P05556 21-798): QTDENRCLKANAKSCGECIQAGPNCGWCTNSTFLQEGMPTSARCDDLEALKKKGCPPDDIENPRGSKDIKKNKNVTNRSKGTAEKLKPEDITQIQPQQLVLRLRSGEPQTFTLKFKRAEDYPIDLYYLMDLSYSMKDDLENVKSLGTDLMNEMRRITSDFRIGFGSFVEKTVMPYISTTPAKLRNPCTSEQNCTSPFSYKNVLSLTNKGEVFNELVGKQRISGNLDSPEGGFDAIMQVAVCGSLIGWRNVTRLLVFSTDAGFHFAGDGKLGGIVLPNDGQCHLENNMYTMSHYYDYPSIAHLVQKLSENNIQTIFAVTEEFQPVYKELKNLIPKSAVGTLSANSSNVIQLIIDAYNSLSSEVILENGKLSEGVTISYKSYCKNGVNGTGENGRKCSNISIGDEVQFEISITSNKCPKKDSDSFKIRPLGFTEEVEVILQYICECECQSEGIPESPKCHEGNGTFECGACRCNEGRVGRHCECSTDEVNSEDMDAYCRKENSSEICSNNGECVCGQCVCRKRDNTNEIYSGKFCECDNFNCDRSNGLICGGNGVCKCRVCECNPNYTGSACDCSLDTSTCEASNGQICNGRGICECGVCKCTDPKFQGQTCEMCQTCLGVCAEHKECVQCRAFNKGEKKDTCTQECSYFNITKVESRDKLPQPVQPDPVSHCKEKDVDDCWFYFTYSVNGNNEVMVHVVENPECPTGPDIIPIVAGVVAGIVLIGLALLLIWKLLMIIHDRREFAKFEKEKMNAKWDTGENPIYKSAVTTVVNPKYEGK
- TEST PROTOCOL: Integrin Adhesion Assay: Protocol 5 (VCAM-coated plate, RPMI-8866 cells with stable LOF mutation of the ITGB7 gene)
- Format: cell-based
- CONDITION DESCRIPTION: RPMI-8866 cells with stable LOF mutation of the ITGB7 gene; read-out: Mean IC50 α4β1 KO^b
pIC50: −log10 of the molar value.
MEASURED PARAMETER: pIC50

COMPOUND | MEASURED PARAMETER | REPORTED RESULT
COc1ccnc(OC)c1-c1cccc2c(C[C@H](NC(=O)c3c(C)cccc3F)C(=O)O)cccc12 | pIC50 | < 6.00
COc1cc2c(c(OC)c1-c1cccc3c(C[C@H](NC(=O)c4c(C)cccc4F)C(=O)O)cccc13)CN(CC(F)(F)F)CC2 | pIC50 | 6.00 to 7.00
Cn1c(=O)c(-c2cccc3c(C[C@H](NC(=O)C4(C)CCCN(CC5COC5)C4)C(=O)O)cccc23)c(C(F)(F)F)c2ccccc21 (stereo partly shown) | pIC50 | < 6.00
COc1cc2c(c(OC)c1-c1cccc3c(C[C@H](NC(=O)C4(C(F)(F)F)CCN(CC(F)(F)F)CC4)C(=O)O)cccc13)CN(C)CC2 | pIC50 | 6.00 to 7.00
Cn1c(C(F)(F)F)cc(C(F)(F)F)c(-c2cccc3c(C[C@H](NC(=O)[C@]4(C)CC[C@@H](N5CCOC[C@@H]5C(F)(F)F)CC4)C(=O)O)cccc23)c1=O | pIC50 | < 6.00
CO[C@@H](C)c1cc(F)c(C(=O)N[C@@H](Cc2cccc3c(-c4c(C(F)(F)F)c5ccccc5n(C)c4=O)cccc23)C(=O)O)c(F)c1 | pIC50 | < 6.00
Cn1c(=O)c(-c2cccc3c(C[C@H](NC(=O)C4(C)CC5CCC(C4)N5CC(F)(F)F)C(=O)O)cccc23)c(C(F)(F)F)c2ccccc21 (stereo partly shown) | pIC50 | 6.00 to 7.00
